Assay: E. coli growth modulation, two-sided OD650, primary screen, E. coli filamentation project, strain DRC41, 24 h (AID 1093);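 note: MC1000 strain lacking acrAB efflux and sulA so SOS filamentation is blocked; test concentration not given here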
Conditions: OD650, 24 h, higher = more signal, called active from +8 up or from −8 down
Parameter measured: z-score

# Compound, Measured result
rows = [
    ("COC(=O)CC=C[C@@H](C)[C@@H](C=NO[C@@H](C)c1cc(-c2c(C)cc(C)cc2C)no1)NS(=O)(=O)c1ccc(C)cc1", -0.881),
    ("CC(C)=CCCC(C)=CCON=C1C[C@@H](O)[C@@H](O)[C@@H]2[C@@H]3C(=O)N(c4cccc(Oc5ccccc5)c4)C(=O)[C@@H]3CC[C@@H]12", 0.951),
    ("C[C@H]1CC[C@H]2C(=O)OC(CO)CN2[C@@H]1c1ccc(Br)cc1 (stereo not given in full)", 0.458),
    ("CC(CCN1CCc2nc(-c3ccccc3)c(-c3ccccc3)cc2C1)=NOC[C@@H](O)COCc1ccco1", 0.845),
    ("C=CC[C@@H]1C=C[C@H](ON=C[C@@H](C)[C@H](OCc2ccccc2)C(C)C)[C@@H](CO)O1", 0.15),
    ("Cc1cc2c(c(=O)o1)[C@@H](O)[C@H]1O[C@H]1C2=O", -1),
    ("COC(=O)CC=C[C@@H](C)[C@H](OCc1cccc(-c2ccccc2)c1)C1CCCCC1", 0.109),
    ("CC(=O)O[C@H]1C2=CO[C@H](C)[C@H]3[C@H]4C5=C([C@H](O)[C@H]6O[C@H]6C5=O)[C@H](OC4C)[C@@]23C(=O)[C@@H]2O[C@@H]21 (stereo not given in full)", -0.681),
    ("COC(=O)[C@H](C)NC(=O)CCC1CC(OC(=O)NCc2ccc3c(c2)OCO3)CC2(CCCC(COC(=O)NCc3cccc(C(F)(F)F)c3)O2)O1 (stereo not given in full)", -0.15),
    ("Cc1ccc(S(=O)(=O)n2c3ccccc3c3nnc(C(=O)c4ccccc4)nc32)cc1", 0.878),
    ("CCOC(=O)C1=NO[C@@]2(C=C(Br)C3(OCCCO3)[C@H]3O[C@H]32)C1", 0.292),
    ("CC(C)CON=C1[C@H]2CCn3c(=O)n(Cc4cc5c(cc4Cl)OCO5)c(=O)n3[C@H]2[C@H](O)[C@@H]2O[C@H]12", 0.0007),
    ("COC(=O)[C@@H]1CC[C@H](C)[C@@H](c2ccc(C)cc2)N1C(=O)c1ccc(C=NO[C@@H](C)c2cn([C@H](CO)Cc3ccccc3)nn2)cc1", 1.35),
    ("COc1cccc([C@H]2Oc3ccc(OC)cc3C(=NOC[C@@H](O)COCc3ccco3)[C@@H]2O)c1", 0.32),
    ("Cn1c(=O)n2n(c1=O)[C@H]1[C@H](O)[C@@H]3O[C@@H]3C(=NOCc3ccccc3)[C@H]1CC2", 0.703),
]

----------
Target: Calmodulin-1 (Homo sapiens)
Test: calcium-bound CALM1 binders on microarrays, profiling panel, artefact control for SMM control-protein annotation, biochemical, small-molecule microarray, Cy5-labelled CALM1, plus calcium (AID 1112);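 note: score merges spot fluorescence with signal to noise from triplicate slides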
Details: Cy5-CALM1 binding fluorescence, higher = more signal

# Compound, composite z-score
data = [
    ("CO[C@H]1COC(=O)CCC[C@@H](C)[C@H](OC)COC(=O)[C@@H]2CCCN2C(=O)CC=C[C@@H]1C", -1.72),
    ("COC(=O)[C@H](C)NC(=O)CCC1CC(OC(=O)NCc2cccc3ccccc23)CC2(CCCC(COC(=O)NCC(c3ccccc3)c3ccccc3)O2)O1 (stereo not given in full)", -0.265),
    ("CCc1cc2c(nc1CC)CCN(CCC(C)=NO[C@@H](C)c1cn([C@H](CO)Cc3ccccc3)nn1)C2", -0.555),
    ("C#CCCCON=C1C[C@@H](O)[C@@H](O)[C@@H]2[C@@H]3C(=O)N(CC)C(=O)[C@@H]3CC[C@@H]12", -0.749),
    ("CC(CCN1CCCCc2nc(C)c(C)cc21)=NOC[C@@H](C)[C@H](OCc1ccccc1)C(C)C", -1.8),
]

All figures here come from PubChem BioAssay.
